Every entry's value here was drawn from patent US11660311B2.

List of EC50 values.
test system: NF-κB pathway in THP1-Dual STING reporter cells; experiment: STING THP1 Reporter Assay, NF-κB pathway (SEAP); type: cell-based, human; conditions: read-out: THP1 Reporter Assays EC50 (μM) NFkB; THP1-Dual cells, 10% human plasma, 20 hours, SEAP; 100% = 100 μM cGAMP
Use µM as the unit, but write only the number.

Problem: Recorded EC50 for Nc1ncnc2c1ncn2[C@@H]1O[C@@H]2COP(=O)(S)O[C@H]3[C@@H](O)[C@H](n4cnc5c4ncn4ncnc54)O[C@@H]3COP(=O)(O)O[C@H]2[C@H]1F (single isomer, unassigned) [Example 10-2] , please?
Solution: 8.99

Problem: I would be grateful if you could share the reported EC50 for Nc1ncnc2c1ncn2[C@@H]1O[C@@H]2COP(=O)(S)O[C@H]3[C@@H](F)[C@H](n4cnc5c4ncn4ccnc54)O[C@@H]3COP(=O)(S)O[C@H]2[C@H]1F (single isomer, unassigned) [Example 21-3] .
Solution: 0.53

Next:
Problem: Suppose we examine the molecule Nc1ncnc2c1ncn2[C@@H]1O[C@@H]2COP(=O)(S)O[C@H]3[C@@H](F)[C@H](n4cnc5c4ncn4ccnc54)O[C@@H]3COP(=O)(S)O[C@H]2[C@H]1F (single isomer, unassigned) [Example 21-2] ; what EC50 value has been reported?
Solution: 0.56
